All values here come from PubChem BioAssay (NCI).

Reported TGI values are given for each entry in this list.
# System: HCT-116 colon
# EXPERIMENT NOTES: NCI tumour cell line growth inhibition, 48 h

{"columns": ["MOLECULE", "TGI"],
 "data": [
  ["COc1cc(-c2nccc3cc(OC)c(OC)cc23)ccc1O", "> 100 µM"],
  ["COc1cc(Oc2c(C)c(Cl)c(OC)c(Cl)c2OC)c2c(c1Cl)COC2=O", "> 100 µM"],
  ["O=C1C(=C(C(F)(F)Cl)C(F)(F)Cl)C2CCC1C2 (stereo unspecified)", "3.61 µM"],
  ["C=CCNC(=S)N1CC(C)C(=O)Nc2cc(Cl)ccc21 (stereo unspecified)", "> 100 µM"],
  ["COc1cc2c(c(OC)c1OC)-c1ccc(O)cc1[C@@H](NC(C)=O)CC2", "> 100 µM"],
  ["CCCc1n(Cc2ccc3ccccc3c2)cc[n+]1Cc1ccc2ccccc2c1", "2.17 µM"],
  ["N#Cc1c(NCc2ccccc2)nc(NCc2ccccc2)c(C#N)c1-c1ccc(O)cc1", "34.1 µM"],
  ["CCCCC(CCCCCC(CCCC)NCc1ccc2c(c1)OCO2)NCc1ccc2c(c1)OCO2 (stereo unspecified)", "0.369 µM"],
  ["COc1ccc2c3c(Nc4cccc(/C(C)=N\\O)c4)[nH]c4ccccc4c-3c(N=O)c2c1", "34.2 µM"],
  ["CC/C=C\\C[C@H](F)C/C=C1/C(=O)C=C[C@@H]1C/C=C\\CCCC(=O)OC", "1.79 µM"],
  ["CCOC(=O)Cn1c2ccccc2c(=O)c2cc(C)c(C)c(C#N)c21", "> 100 µM"],
  ["COc1cccc(/C=C/C(=O)c2ccc(SC)cc2)c1OC", "15.4 µM"],
  ["CCOC(=O)C(NC(=O)c1ccccc1)(Nc1ccc(S(=O)(=O)Nc2ncccn2)cc1)C(F)(F)F (stereo unspecified)", "> 100 µM"],
  ["COC(=O)C1CCN(C(=O)OC(C)(C)C)CC1", "> 100 µM"],
  ["NCCSc1cc(O)c2c(c1N)C(=O)c1ccccc1C2=O", "> 100 µM"],
  ["CC(O)C1(CNc2cc(Cl)nc(N)n2)CCCCC1 (stereo unspecified)", "> 100 µM"],
  ["Cn1c(=O)c(Oc2ccc(F)cc2F)cc2cnc(NC(C)(C)CO)nc21", "> 25 µM"],
  ["CO[C@H]1C=CO[C@@]2(C)Oc3c(C)c(O)c4c(O)c(c(CN5CCN(C)CC5)c(O)c4c3C2=O)NC(=O)/C(C)=C\\C=C[C@H](C)[C@H](O)C(C)[C@@H](O)C(C)[C@H](OC(C)=O)[C@@H]1C (stereo partly specified)", "35.9 µM"],
  ["O=C(O)C[C@@H](Cl)[C@H](NC(=O)OCc1ccccc1)C(=O)O", "> 100 µM"],
  ["CCCCN1CCCC[C@@H]1C(=O)N[C@H](C(=O)N(C)[C@H](C[C@@H](OC(C)=O)c1nc(C(=O)NC2CCC(C(=O)OC)CC2)cs1)C(C)C)C(C)C (stereo partly specified)", "> 25 µM"],
  ["Nc1c(C(=O)Nc2ccccc2)sc2nc3c(cc12)CCCCC3", "> 100 µM"]
]}

* * *

# Tested on: HCT-116 colon
# EXPERIMENT NOTES: NCI tumour cell line growth inhibition, 48 h
METRIC: TGI

{"columns": ["COMPOUND", "METRIC", "TEST RESULT"],
 "data": [
  ["CCNC(=O)c1cc(Cl)ccc1NC(=O)C12CC3CC(CC(C3)C1)C2", "TGI", "> 100 µM"],
  ["O=C/C1=C/C2=Cc3ccccc3C=C(/C=C(/C=O)C1)C2", "TGI", "48.3 µM"],
  ["COc1cc(-c2nc3ccc(N4CCN(C)CC4)cc3[nH]2)c(OC)c2[nH]c(COC(C)=O)nc12", "TGI", "> 100 µM"],
  ["COC(=O)c1ccc2c(c1)C(=O)c1c-2n(CCCCl)c(=O)c2cc([N+](=O)[O-])ccc12", "TGI", "> 100 µM"],
  ["O=C1c2ccccc2C(=O)N1CCSCC(CO)SCCN1C(=O)c2ccccc2C1=O (stereo not given)", "TGI", "> 100 µM"]
]}
